// log10(IC50) lookup, one value per entry
Test system: MIA PaCa-2
TEST_PROTOCOL: Antiproliferative activity against human MIA PaCa-2 cells assessed as inhibition of cell growth incubated for 48 hrs by propidium iodide staining based fluorometer assay
Assay type: functional
CONDITION_CONTEXT: MIA PaCa-2, 48 h
TEST_READOUT: log10(IC50) (log10 of the value in µM)

INSERT INTO measurements (compound, measured_target, measurement) VALUES
  ('COc1cc2c(cc1OC)C(=N/O)/C(=C/c1cc(OC)c(OC)c(OC)c1Br)CC2', 'MIA PaCa-2', 0.46),
  ('COc1ccc(/C=C2\CC(C)C/C(=C\c3ccc(OC)c(OC)c3Cl)C2=O)c(Cl)c1OC (stereo not given)', 'MIA PaCa-2', 0.48),
  ('COc1cc(/C=C2\CCC/C(=C\c3cc(OC)c(OC)c(OC)c3Br)C2=O)c(Br)c(OC)c1OC', 'MIA PaCa-2', 0.41),
  ('COc1cc(/C=C2\CCc3c(O)cccc3C2=O)c(Br)c(OC)c1OC', 'MIA PaCa-2', 0.28),
  ('COc1ccc(/C=C2\CCc3ccccc3C2=O)c(Cl)c1OC', 'MIA PaCa-2', 1.37);

---

// viability at 96 h lookup, one value per entry
TEST_PROTOCOL: Cytotoxicity against human MCF-10A cells assessed as cell viability incubated for 96 hrs by MTT assay
Type: toxicity, cell-based
Design: concentration or dose not given beside the values
CONDITION_CONTEXT: read-out: Activity
TEST_READOUT: viability at 96 h (%)

INSERT INTO assay_data (compound, measurement) VALUES
  ('COc1cc(/C=C2\CCc3ccc([N+](=O)[O-])cc3C2=O)c(Br)c(OC)c1OC', 88),
  ('COc1ccc(/C=C2\CN(Cc3ccccc3)C/C(=C\c3ccc(OC)c(OC)c3Cl)C2=O)c(Cl)c1OC', 89),
  ('COc1ccc(/C=C2\CC(C(C)C)C/C(=C\c3ccc(OC)c(OC)c3Cl)C2=O)c(Cl)c1OC (centres undefined)', 87),
  ('COc1cccc(/C=C2\CC(C(C)C)C/C(=C\c3cccc(OC)c3Cl)C2=O)c1Cl (centres undefined)', 93);

---

Test system: PANC-1
TEST_PROTOCOL: cells
CONDITION_CONTEXT: Homo sapiens, PANC-1, 48 h
Description: Antiproliferative activity against human PANC-1 cells assessed as inhibition of cell growth incubated for 48 hrs by propidium iodide staining based fluorometer assay
TEST_READOUT: IC50 (µM)

INSERT INTO measurements (chemical_structure, test_readout, unit_of_measurement, measurement) VALUES
  ('COc1cc(/C=C2\CCc3ccc([N+](=O)[O-])cc3C2=O)c(Br)c(OC)c1OC', 'IC50', 'µM', 1.2),
  ('COc1ccc(/C=C2\COC/C(=C\c3ccc(OC)c(OC)c3Cl)C2=O)c(Cl)c1OC', 'IC50', 'µM', 5.8),
  ('COc1cc(/C=C2\CCc3ccc(Br)cc3C2=O)c(Br)c(OC)c1OC', 'IC50', 'µM', 9.9),
  ('COc1cc2c(cc1OC)C(=O)/C(=C/c1cccc(OC)c1Cl)CC2', 'IC50', 'µM', 9.5);

---

System: MIA PaCa-2
TEST_PROTOCOL: Antiproliferative activity against human MIA PaCa-2 cells assessed as inhibition of cell growth incubated for 48 hrs by propidium iodide staining based fluorometer assay
Type: functional
CONDITION_CONTEXT: MIA PaCa-2, 48 h
// IC50 lookup, one value per entry
TEST_READOUT: IC50 (µM)

INSERT INTO assay_data (compound, test_readout, unit_of_measurement, measurement) VALUES
  ('COc1cccc(/C=C2\CNC/C(=C\c3cccc(OC)c3Cl)C2=O)c1Cl', 'IC50', 'µM', 7.7),
  ('COc1ccc(/C=C2\CCc3ccc(Cl)cc3C2=O)c(Cl)c1OC', 'IC50', 'µM', 9.5),
  ('COc1cc(/C=C2\CCc3ccc(F)cc3C2=O)c(Br)c(OC)c1OC', 'IC50', 'µM', 8.9),
  ('COc1cccc(/C=C2\CC(C)c3ccccc3C2=O)c1Cl (centres undefined)', 'IC50', 'µM', 9.8);
